The measurements presented in this section are drawn from the supplement of paper PMC11061612.

- Tested on: 8505C (Thyroid Gland Carcinoma)
- assay.overview: combination Emax (second highest fraction inhibited in the dose matrix, 72 h); higher = more inhibition; extreme values may be limits of the assay

compound	combination Emax
Cc1cc2ncnn2cc1Nc1ncc2c(n1)n(C1CCOCC1)c(=O)n2C [AZD7648] + O=C(c1cc(Cc2n[nH]c(=O)c3ccccc23)ccc1F)N1CCN(C(=O)C2CC2)CC1 [Olaparib] (first compound max 10 µM, 7x7, partner max 10 µM)	0.229
CS(=O)(=O)CCNCc1ccc(-c2ccc3ncnc(Nc4ccc(OCc5cccc(F)c5)c(Cl)c4)c3c2)o1 [Lapatinib] + C[C@@H](Oc1cc(-c2cnn(C3CCNCC3)c2)cnc1N)c1c(Cl)ccc(F)c1Cl [Crizotinib] (first compound max 10 µM, 7x7, partner max 10 µM)	0.721

----------
- Tested on: MOG-G-CCM (Low Grade Glioma)
- assay.overview: Bliss excess, mean over the matrix (fraction); higher = more synergy
Measured Bliss excess, listed per entry for reference.

molecule	Bliss excess
CN(C)CCCOc1ccc(-c2ccc3ncc4c(c3c2)n(C2CCOCC2)c(=O)n4C)cn1 [AZD0156] + CCN(CCO)CCCOc1ccc2c(Nc3cc(CC(=O)Nc4cccc(F)c4)[nH]n3)ncnc2c1 [AZD2811] (first compound max 1 µM, 7x7, partner max 1 µM)	-0.0228
Cc1c2c(nn1C)CSCc1cc(n(C)n1)CSc1cc(c3ccccc3c1)OCCCc1c(C(=O)O)n(C)c3c-2c(Cl)ccc13 [AZD5991] + Cn1cnc2c(F)c(Nc3ccc(Br)cc3Cl)c(C(=O)NOCCO)cc21 [Selumetinib] (first compound max 1 µM, 7x7, partner max 3 µM)	-0.0241
C[C@@H](Oc1cc(-c2cnn(C3CCNCC3)c2)cnc1N)c1c(Cl)ccc(F)c1Cl [Crizotinib] + Cn1cnc2c(F)c(Nc3ccc(Br)cc3Cl)c(C(=O)NOCCO)cc21 [Selumetinib] (first compound max 10 µM, 7x7, partner max 10 µM)	-0.0423
Cc1c2c(nn1C)CSCc1cc(n(C)n1)CSc1cc(c3ccccc3c1)OCCCc1c(C(=O)O)n(C)c3c-2c(Cl)ccc13 [AZD5991] + C[C@@H](Nc1cc(F)cc(F)c1)c1cc(C(=O)N(C)C)cc2c(=O)cc(N3CCOCC3)oc12 [AZD8186] (first compound max 1 µM, 7x7, partner max 3 µM)	-0.0316
CN(CCO)CC[C@H](CSc1ccccc1)Nc1ccc(S(=O)(=O)NC(=O)c2ccc(N3CCC([C@@H](O)c4ccccc4-c4ccc(Cl)cc4)CC3)cc2)cc1S(=O)(=O)C(F)(F)F [AZD4320] + CS(=O)(=O)CCNCc1ccc(-c2ccc3ncnc(Nc4ccc(OCc5cccc(F)c5)c(Cl)c4)c3c2)o1 [Lapatinib] (first compound max 1 µM, 7x7, partner max 10 µM)	-0.0278
O=C(c1cc(Cc2n[nH]c(=O)c3ccccc23)ccc1F)N1CCN(C(=O)C2CC2)CC1 [Olaparib] + CC1(C)CCC(CN2CCN(c3ccc(C(=O)NS(=O)(=O)c4ccc(NCC5CCOCC5)c([N+](=O)[O-])c4)c(Oc4cnc5[nH]ccc5c4)c3)CC2)=C(c2ccc(Cl)cc2)C1 [Venetoclax] (first compound max 10 µM, 7x7, partner max 1 µM)	-0.0459
Cn1cnc2c(F)c(Nc3ccc(Br)cc3Cl)c(C(=O)NOCCO)cc21 [Selumetinib] + CCN(CCO)CCCOc1ccc2c(Nc3cc(CC(=O)Nc4cccc(F)c4)[nH]n3)ncnc2c1 [AZD2811] (first compound max 10 µM, 7x7, partner max 1 µM)	-0.0745

----------
- Test system: ST486 (Burkitt's Lymphoma)
- assay.overview: Bliss excess, mean over the matrix (fraction); higher = more synergy
Measured Bliss excess, listed per entry for reference.

compound	assay.system	Bliss excess
CC1(C)CCC(CN2CCN(c3ccc(C(=O)NS(=O)(=O)c4ccc(NCC5CCOCC5)c([N+](=O)[O-])c4)c(Oc4cnc5[nH]ccc5c4)c3)CC2)=C(c2ccc(Cl)cc2)C1 [Venetoclax] + C1CN(CCC1(C(=O)N[C@@H](CCO)C2=CC=C(C=C2)Cl)N)C3=NC=NC4=C3C=CN4 [Capivasertib] (first compound max 1 µM, 7x7, partner max 3 µM)	ST486 (Burkitt's Lymphoma)	-0.0348
COc1nnc2ccc(N3CCC(c4ccc(OCCN5CCN(C)C(=O)[C@H]5C)cc4)CC3)nn12 [AZD5153] + Cn1cnc2c(F)c(Nc3ccc(Br)cc3Cl)c(C(=O)NOCCO)cc21 [Selumetinib] (first compound max 1 µM, 7x7, partner max 10 µM)	ST486 (Burkitt's Lymphoma)	0.031
COc1cccc(OCCCN)c1-c1cc(Nc2cnc(C#N)cn2)n[nH]1 [Prexasertib] + O=C(c1cc(Cc2n[nH]c(=O)c3ccccc23)ccc1F)N1CCN(C(=O)C2CC2)CC1 [Olaparib] (first compound max 1 µM, 7x7, partner max 10 µM)	ST486 (Burkitt's Lymphoma)	-0.0406
C[C@@H](c1ccc2nccn2c1)n1nnc2ncc(-c3cnn(C)c3)nc21 [Savolitinib] + CC1(C)CCC(CN2CCN(c3ccc(C(=O)NS(=O)(=O)c4ccc(NCC5CCOCC5)c([N+](=O)[O-])c4)c(Oc4cnc5[nH]ccc5c4)c3)CC2)=C(c2ccc(Cl)cc2)C1 [Venetoclax] (first compound max 1 µM, 7x7, partner max 1 µM)	ST486 (Burkitt's Lymphoma)	-0.0481
CC1(C)CCC(CN2CCN(c3ccc(C(=O)NS(=O)(=O)c4ccc(NCC5CCOCC5)c([N+](=O)[O-])c4)c(Oc4cnc5[nH]ccc5c4)c3)CC2)=C(c2ccc(Cl)cc2)C1 [Venetoclax] + CCN(CCO)CCCOc1ccc2c(Nc3cc(CC(=O)Nc4cccc(F)c4)[nH]n3)ncnc2c1 [AZD2811] (first compound max 1 µM, 7x7, partner max 1 µM)	ST486 (Burkitt's Lymphoma)	-0.0299
O=C(c1cc(Cc2n[nH]c(=O)c3ccccc23)ccc1F)N1CCN(C(=O)C2CC2)CC1 [Olaparib] + CN(CC[C@H](CSC1=CC=CC=C1)NC2=C(C=C(C=C2)S(=O)(=O)NC(=O)C3=CC=C(C=C3)N4CCC(CC4)[C@H](C5=CC=CC=C5C6=CC=C(C=C6)Cl)O)S(=O)(=O)C(F)(F)F)CCO [AZD4320] (first compound max 10 µM, 7x7, partner max 1 µM)	ST486 (Burkitt's Lymphoma)	-0.0192
N#Cc1cnc(Nc2cc(NC[C@H]3CNCCO3)c(C(F)(F)F)cn2)cn1 [SRA737] + Nc1ccn([C@@H]2O[C@H](CO)[C@@H](O)C2(F)F)c(=O)n1 [Gemcitabine] (first compound max 10 µM, 7x7, partner max 0.3 µM)	ST486 (Burkitt's Lymphoma)	-0.006
Cc1cc2ncnn2cc1Nc1ncc2c(n1)n(C1CCOCC1)c(=O)n2C [AZD7648] + C=CCn1c(=O)c2cnc(Nc3ccc(N4CCN(C)CC4)cc3)nc2n1-c1cccc(C(C)(C)O)n1 [AZD1775] (first compound max 10 µM, partner max 1 µM)	ST486 (Burkitt's Lymphoma)	-0.0316
CN(CCO)CC[C@H](CSc1ccccc1)Nc1ccc(S(=O)(=O)NC(=O)c2ccc(N3CCC([C@@H](O)c4ccccc4-c4ccc(Cl)cc4)CC3)cc2)cc1S(=O)(=O)C(F)(F)F [AZD4320] + Nc1ccn([C@@H]2O[C@H](CO)[C@@H](O)C2(F)F)c(=O)n1 [Gemcitabine] (first compound max 1 µM, 7x7, partner max 0.3 µM)	ST486 (Burkitt's Lymphoma)	-0.0194
CCN(CCO)CCCOc1ccc2c(Nc3cc(CC(=O)Nc4cccc(F)c4)[nH]n3)ncnc2c1 [AZD2811] + C=CCn1c(=O)c2cnc(Nc3ccc(N4CCN(C)CC4)cc3)nc2n1-c1cccc(C(C)(C)O)n1 [AZD1775] (first compound max 1 µM, partner max 1 µM)	ST486 (Burkitt's Lymphoma)	-0.0925
CN(CCO)CC[C@H](CSc1ccccc1)Nc1ccc(S(=O)(=O)NC(=O)c2ccc(N3CCC([C@@H](O)c4ccccc4-c4ccc(Cl)cc4)CC3)cc2)cc1S(=O)(=O)C(F)(F)F [AZD4320] + Cc1cc2ncnn2cc1Nc1ncc2c(n1)n(C1CCOCC1)c(=O)n2C [AZD7648] (first compound max 1 µM, 7x7, partner max 10 µM)	ST486 (Burkitt's Lymphoma)	-0.0066
N#Cc1cnc(Nc2cc(NC[C@H]3CNCCO3)c(C(F)(F)F)cn2)cn1 [SRA737] + CCc1c2c(nc3ccc(O)cc13)-c1cc3c(c(=O)n1C2)COC(=O)[C@]3(O)CC [SN-38] (first compound max 10 µM, 7x7, partner max 0.3 µM)	ST486 (Burkitt's Lymphoma)	-0.0232
CC(=O)Nc1cccc(-n2c(=O)n(C3CC3)c(=O)c3c(Nc4ccc(I)cc4F)n(C)c(=O)c(C)c32)c1 [Trametinib] + Cc1nc(-c2cn3c(n2)-c2ccc(-c4cnn(C(C)(C)C(N)=O)c4)cc2OCC3)n(C(C)C)n1 [Taselisib] (first compound max 1 µM, 7x7, partner max 10 µM)	ST486 (Burkitt's Lymphoma)	-0.033
